# Tested on: johnsongrass
# assay protocol: Test C pre-/postemergence herbicide test
# Format: in vivo, Sorghum halepense
# measurement setup: Postemergence, 62 g ai/ha; scale 0 to 100 (0 no effect, 100 complete control)
# From the text: […]
Below, each entry is listed alongside its reported Plant response rating, Johnsongrass.

# compound, target entity, Plant response rating, Johnsongrass
data = [
    ("O=C1NCC(c2cc(F)c(F)c(F)c2)C1C(=O)Nc1cccc(F)c1F (stereo not shown)", "johnsongrass", 0),
    ("Cc1c(F)cccc1NC(=O)C1C(=O)NCC1c1ccc(F)c(F)c1 (racemic)", "johnsongrass", 0),
    ("O=C1NCC(c2ccc(F)c(F)c2)C1C(=O)Nc1cccc(F)c1F (stereo not shown)", "johnsongrass", 0),
    ("O=C1NCC(c2ccc(C(F)(F)F)cc2)C1C(=O)Nc1ccccc1F (stereo not shown)", "johnsongrass", 0),
]

* * *

Listing of recorded Plant response rating, Field Violet by entry.
# System: field violet
# assay protocol: Test D pre-/postemergence herbicide test
# Assay type: in vivo, Viola arvensis
# measurement setup: Preemergence, 62 g ai/ha; scale 0 to 100 (0 no effect, 100 complete control)
# From the text: […]
measured attribute: Plant response rating, Field Violet

# molecule, measured
measured = [
    ("O=C1NC[C@H](c2cccc(C(F)(F)F)c2)[C@H]1C(=O)Nc1cccc(F)c1F", 35),
    ("O=C1NCC(c2ccc(C(F)(F)F)cc2)C1C(=O)Nc1ccccc1F (centres unmarked)", 0),
    ("O=C1NCC(c2ccc(C(F)(F)F)cc2)C1C(=O)Nc1cccc(F)c1F (racemic) [Compound 202]", 0),
    ("O=C1NCC(c2ccc(F)c(C(F)(F)F)c2)C1C(=O)Nc1cccc(F)c1F (racemic)", 20),
    ("O=C1NCC(c2ccc(C(F)(F)F)cc2)C1C(=O)Nc1cccc(F)c1F (centres unmarked) [Compound 80]", 20),
]

* * *

# Tested on: corn
# assay protocol: Test C pre-/postemergence herbicide test
# Assay type: in vivo, Zea mays
# measurement setup: Preemergence, 62 g ai/ha; scale 0 to 100

# compound, Plant response rating, Corn
data = [
    ("O=C1NCC(c2ccc(F)c(F)c2)C1C(=O)Nc1cccc(F)c1F (racemic) [Compound 101]", 0),
    ("O=C1NCC(c2ccc(F)c(F)c2)C1C(=O)Nc1cccc(F)c1F (stereo not shown) [Compound 17]", 0),
    ("O=C1NCC(c2ccc(F)c(C(F)(F)F)c2)C1C(=O)Nc1cccc(F)c1F (racemic) [Compound 77]", 20),
    ("Cc1ccccc1NC(=O)C1C(=O)NCC1c1cccc(C(F)(F)F)c1 (racemic) [Compound 109]", 5),
]

* * *

# Tested on: ducksalad
# assay protocol: Test C flooded paddy test
# Type: in vivo, Heteranthera limosa
# measurement setup: Flood, 250 g ai/ha; scale of 0 to 100 where 0 is no effect and 100 is complete control; 13 to 15 days
Catalogue of Plant response rating, Ducksalad values
measured attribute: Plant response rating, Ducksalad

# compound, measured attribute, measured
rows = [
    ("O=C1NC[C@H](c2cccc(C(F)(F)F)c2)[C@H]1C(=O)Nc1ccccc1F [Compound 204]", "Plant response rating, Ducksalad", 95),
    ("O=C1NCC(c2cccc(C(F)F)c2)C1C(=O)Nc1ccccc1C(F)(F)F (racemic) [Compound 212]", "Plant response rating, Ducksalad", 70),
    ("O=C1NCC(c2cccc(C(F)(F)F)c2)C1C(=O)Nc1ccccc1Br (racemic) [Compound 190]", "Plant response rating, Ducksalad", 75),
    ("O=C1NCC(c2cccc(OC(F)F)c2)C1C(=O)Nc1ccccc1F (stereo not drawn) [Compound 323]", "Plant response rating, Ducksalad", 100),
    ("O=C1NC[C@H](c2cccc(C(F)(F)F)c2)[C@H]1C(=O)Nc1cccc(F)c1F [Compound 206]", "Plant response rating, Ducksalad", 100),
    ("O=C1NCC(c2ccc(F)c(F)c2)C1C(=O)Nc1ccc(F)c(F)c1F (stereo not drawn) [Compound 346]", "Plant response rating, Ducksalad", 100),
]
